assayed.target: H5N1 virus neuraminidase (Influenza A virus)
Sequence (Q9Q0U7 whole entry, looked up): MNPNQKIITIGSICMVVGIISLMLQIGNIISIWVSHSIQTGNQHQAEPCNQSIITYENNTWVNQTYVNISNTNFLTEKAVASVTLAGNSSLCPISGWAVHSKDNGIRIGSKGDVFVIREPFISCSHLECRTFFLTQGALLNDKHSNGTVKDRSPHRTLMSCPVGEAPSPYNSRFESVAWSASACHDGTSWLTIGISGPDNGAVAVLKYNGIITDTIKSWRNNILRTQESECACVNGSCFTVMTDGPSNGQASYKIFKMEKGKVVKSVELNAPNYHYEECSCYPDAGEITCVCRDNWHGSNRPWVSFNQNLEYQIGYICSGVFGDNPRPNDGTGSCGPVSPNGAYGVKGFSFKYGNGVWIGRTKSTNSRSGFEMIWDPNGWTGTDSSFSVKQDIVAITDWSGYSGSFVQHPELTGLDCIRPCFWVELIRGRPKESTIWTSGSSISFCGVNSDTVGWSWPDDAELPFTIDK
method: biochemical
metric.name: IC50 (nM)
The response must be a number in nM with no trailing unit.

Quick one: IC50 for CCOC(=O)C1=C[C@@H](OC(CC)CC)[C@H](NC(C)=O)[C@@H](N)C1 [Osetamivir, reference compound] ?
8.87

----------
assayed.target: HA protein (Influenza A virus, UniProt Q9Q0U6)
Sequence (Q9Q0U6 17-568 limits assumed): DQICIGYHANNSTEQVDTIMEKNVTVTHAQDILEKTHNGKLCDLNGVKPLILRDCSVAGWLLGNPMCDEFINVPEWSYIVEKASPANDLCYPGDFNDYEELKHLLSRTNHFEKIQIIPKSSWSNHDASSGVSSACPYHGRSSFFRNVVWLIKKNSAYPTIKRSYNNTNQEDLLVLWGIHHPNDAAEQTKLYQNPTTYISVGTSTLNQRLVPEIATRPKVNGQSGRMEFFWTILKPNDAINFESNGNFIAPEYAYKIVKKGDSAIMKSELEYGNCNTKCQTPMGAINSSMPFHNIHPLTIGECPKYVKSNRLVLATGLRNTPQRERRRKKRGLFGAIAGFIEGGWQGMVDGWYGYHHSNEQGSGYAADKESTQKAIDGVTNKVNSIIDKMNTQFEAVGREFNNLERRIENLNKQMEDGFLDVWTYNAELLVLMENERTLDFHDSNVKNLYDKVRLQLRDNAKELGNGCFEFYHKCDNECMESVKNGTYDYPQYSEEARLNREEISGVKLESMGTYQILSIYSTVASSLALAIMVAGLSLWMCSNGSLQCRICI
metric.name: Kd (µM)
The response must be a number in µM with no trailing unit.

[[record]]
compound = "CC1CCC2(OC1)OC1CC3C4CC(=O)C5CC(OC6OC(CO)C(OC7OC(C)C(O)C(O)C7O)C(O)C6OC6OC(C)C(O)C(O)C6O)CCC5(C)C4CCC3(C)C1C2C (centres unmarked)"
metric_name = "Kd"
result_value = 257


Quick one: Kd for CC1CCC2(OC1)OC1CC3C4CC(O)C5CC(OC6OC(CO)C(OC7OC(C)C(O)C(O)C7O)C(O)C6OC6OC(C)C(O)C(O)C6O)CCC5(C)C4CCC3(C)C1C2C (centres unmarked) ?
367

----------
Test system: MDCK cells
measurement.context: dog
metric.name: CC50 (µM)
The response must be a number in µM with no trailing unit.

Quick one: CC50 for CC1CCC2(OC1)OC1CC3C4CC(=O)C5CC(OC6OC(CO)C(OC7OC(C)C(O)C(O)C7O)C(O)C6OC6OC(C)C(O)C(O)C6O)CCC5(C)C4CCC3(C)C1C2C (centres unmarked) [XC-27-1] ?
1250

Quick one: CC50 for CC1CCC2(OC1)OC1CC3C4CC(=O)C5CC(OC6OC(CO)C(OC7OC(C)C(O)C(O)C7O)C(O)C6OC6OC(C)C(O)C(O)C6O)CCC5(C)C4CCC3(C)C1C2C (centres unmarked) [UA-Nu-ph-5] ?
127

----------
Test system: wild-type A/Thailand/kan353/2004 (H5N1) pseudo-typed virus
method: microbe, parasite or virus in culture
Assay type: cell-based, H5N1 pseudovirus
measurement.context: Influenza A virus, H5N1, MDCK, read-out: IC50 against H5N1 pseudovirus
Each entry below carries its recorded pIC50.
Scale for pIC50: -log10 of concentration given in mol/L; no unit attached.

[[record]]
compound = "CC1CCC2(OC1)OC1CC3C4CC(O)C5CC(OC6OC(CO)C(OC7OC(C)C(O)C(O)C7O)C(O)C6OC6OC(C)C(O)C(O)C6O)CCC5(C)C4CCC3(C)C1C2C (centres unmarked) [XC-27-2]"
result_value = 4.73


Now for a further compound.
Quick one: pIC50 for CC1CCC2(OC1)OC1CC3C4CC(=O)C5CC(OC6OC(CO)C(OC7OC(C)C(O)C(O)C7O)C(O)C6OC6OC(C)C(O)C(O)C6O)CCC5(C)C4CCC3(C)C1C2C (centres unmarked) [XC-27-1] ?
4.89
